For each entry below, report its inhibition at 10 µM value.
Target: His-hMAGL (recombinant polyhistidine tagged human MAGL protein) (Homo sapiens, UniProt Q99685)
Construct: made in house; host or cells: E. coli BL21(DE3)
Sequence (Q99685 whole entry): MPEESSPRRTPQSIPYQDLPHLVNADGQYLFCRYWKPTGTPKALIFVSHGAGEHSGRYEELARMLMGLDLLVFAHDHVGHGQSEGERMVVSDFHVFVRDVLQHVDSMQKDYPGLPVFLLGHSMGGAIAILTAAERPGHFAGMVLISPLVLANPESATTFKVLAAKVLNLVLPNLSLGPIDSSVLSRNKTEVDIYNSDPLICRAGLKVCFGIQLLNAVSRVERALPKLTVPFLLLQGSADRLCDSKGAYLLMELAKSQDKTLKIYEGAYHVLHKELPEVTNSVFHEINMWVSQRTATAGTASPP
Assay: Measurement of MAGL inhibitory activity (arachidonic acid production from 2-arachidonylglycerol, RapidFire-mass spectrometry)
Assay type: biochemical
Settings: MAGL inhibitory rate, test compound 10 μM, 60 min preincubation, 2-arachidonylglycerol substrate
Answers are plain numbers, in %.

Some solved cases for reference:
O=C1NC2(CO1)CN(C(=O)c1sc3c(C(F)F)c(OC(F)(F)F)ccc3c1Cl)C2    101
O=C1CCC2(CN(C(=O)c3ccc(-c4cc(F)ccc4Cl)cc3)C2)N1    92
O=C1NC2(CO1)CN(C(=O)c1sc3c(OC(F)(F)F)ccc(F)c3c1Cl)C2    101

Each compound below has a reported value. Please supply its inhibition at 10 µM.
1. O=C1NC2(CO1)CN(C(=O)[C@H]1C[C@@H](OCc3ccc(Cl)cc3Cl)C1)C2
2. O=C1NC2(CO1)CN(C(=O)c1sc3ccc(C(F)(F)F)cc3c1C(F)F)C2
3. O=C1CCC2(CN(C(=O)c3sc(-c4cccc(OC(F)(F)F)c4)cc3Cl)C2)N1
4. Cc1ccc(-c2ccc(C(=O)N3CC4(CCC(=O)N4)C3)cc2)c(C)c1

100
100
95
98

Could you tell me which inhibition at 10 µM is on file for "O=C1CCC2(CN(C(=O)N3CCC(Cc4ccc(Cl)cc4C(F)(F)F)CC3)C2)N1" ?
102
